All values here come from patent US6518301B1.

Target desc: ER-β (Gen Bank Accession #X99101) (Homo sapiens, UniProt Q92731)
Construct: made in house; host or cells: in vitro transcription/translation, TNT T7 Quick-Coupled reticulocyte lysate (Promega Cat.#L1170)
Sequence (Q92731 54-530 limits assumed): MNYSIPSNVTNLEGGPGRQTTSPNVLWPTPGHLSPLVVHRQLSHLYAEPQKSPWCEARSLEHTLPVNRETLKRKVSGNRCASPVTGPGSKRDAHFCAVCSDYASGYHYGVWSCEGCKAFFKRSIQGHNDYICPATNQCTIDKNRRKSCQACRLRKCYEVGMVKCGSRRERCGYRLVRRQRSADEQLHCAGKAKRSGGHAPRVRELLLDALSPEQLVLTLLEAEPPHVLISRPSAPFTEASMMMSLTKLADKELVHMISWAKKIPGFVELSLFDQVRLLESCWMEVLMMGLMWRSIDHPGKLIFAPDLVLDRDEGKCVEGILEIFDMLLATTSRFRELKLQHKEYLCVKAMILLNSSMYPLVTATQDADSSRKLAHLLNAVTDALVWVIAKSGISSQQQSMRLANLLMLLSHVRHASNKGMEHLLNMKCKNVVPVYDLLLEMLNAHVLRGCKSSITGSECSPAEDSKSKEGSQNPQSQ
Protocol notes: Estrogen receptor binding, competition with [125I]-estradiol, ER-β
Study conditions: competition with 150 pM [125I]-estradiol; receptor-programmed reticulocyte lysate; overnight at 4° C.; Cheng-Prushoff from IC50; read-out: ER-β Ki
Measurement kind: Ki (nM)
Report the value in nM with no unit label.

Previously resolved entries follow.
# Molecule, Ki / nM
data = [
    ("O=c1oc2ccc(O)cc2cc1-c1ccc(O)cc1 [compound 41]", 4.6),
    ("O=c1c(-c2ccc(F)cc2)coc2cc(O)cc(O)c12 [compound 11]", 100),
    ("Cc1cc(-c2coc3cc(O)cc(O)c3c2=O)cc(C)c1O [compound 10]", 25),
]

State the recorded Ki for this entry: O=C1CC(c2ccc(O)cc2)Cc2ccc(O)cc21 (centres unmarked) [compound 37]
0.73

State the recorded Ki for this entry: CCCc1cc(-c2coc3cc(O)cc(O)c3c2=O)ccc1O [compound 8]
0.75

* * *

Target desc: ER-β (Gen Bank Accession #X99101) (Homo sapiens)
Construct: made in house; host or cells: in vitro transcription/translation, TNT T7 Quick-Coupled reticulocyte lysate (Promega Cat.#L1170)
Protocol notes: Estrogen receptor binding, competition with [125I]-estradiol, ER-β
Study conditions: competition with 150 pM [125I]-estradiol; receptor-programmed reticulocyte lysate; overnight at 4° C.; Cheng-Prushoff from IC50; read-out: ER-β Ki
Measurement kind: pKi
Just the number, please; pKi means minus log10 of the concentration in mol/L.

Previously resolved entries follow.
# Molecule, pKi
rows = [
    ("Nc1ccc(-c2coc3cc(O)cc(O)c3c2=O)cc1 [compound 13]", 8.22),
    ("O=c1c(-c2ccc(O)c(Br)c2)coc2cc(O)cc(O)c12 [compound 6]", 8.90),
    ("O=c1c(-c2ccc(O)cc2Cl)coc2cc(O)cc(O)c12 [Compound No. 2]", 9.26),
    ("COc1c(O)cc(O)c2c(=O)c(-c3ccc(O)cc3)coc12 [compound 32]", 7.48),
    ("O=c1c(-c2ccccc2F)coc2cc(O)cc(O)c12 [compound 33]", 7.30),
]

Then there is this molecule:
State the recorded pKi for this entry: O=c1c(-c2cccc(O)c2)coc2cc(O)cc(O)c12 [compound 15]
7.82

* * *

Target desc: ER-α (Gen Bank Accession #M12674) (Homo sapiens, UniProt P03372)
Construct: made in house; host or cells: in vitro transcription/translation, TNT T7 Quick-Coupled reticulocyte lysate (Promega Cat.#L1170)
Sequence (P03372 whole entry): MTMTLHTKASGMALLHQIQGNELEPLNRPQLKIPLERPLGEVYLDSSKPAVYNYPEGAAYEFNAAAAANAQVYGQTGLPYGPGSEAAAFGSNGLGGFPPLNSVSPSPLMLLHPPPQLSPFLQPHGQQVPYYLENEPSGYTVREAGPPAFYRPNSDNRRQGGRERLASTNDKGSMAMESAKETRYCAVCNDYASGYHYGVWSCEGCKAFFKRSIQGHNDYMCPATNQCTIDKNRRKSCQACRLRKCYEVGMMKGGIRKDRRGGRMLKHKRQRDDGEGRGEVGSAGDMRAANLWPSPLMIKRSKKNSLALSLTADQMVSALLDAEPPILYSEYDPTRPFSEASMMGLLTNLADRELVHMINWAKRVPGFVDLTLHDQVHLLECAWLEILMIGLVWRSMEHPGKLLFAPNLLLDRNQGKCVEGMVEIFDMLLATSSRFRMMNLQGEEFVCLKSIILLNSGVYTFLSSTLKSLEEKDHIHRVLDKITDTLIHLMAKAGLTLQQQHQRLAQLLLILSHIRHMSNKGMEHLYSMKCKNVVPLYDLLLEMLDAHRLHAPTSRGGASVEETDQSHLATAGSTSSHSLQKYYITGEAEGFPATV
Protocol notes: Estrogen receptor binding, competition with [125I]-estradiol, ER-α
Study conditions: competition with 150 pM [125I]-estradiol; receptor-programmed reticulocyte lysate; overnight at 4° C.; Cheng-Prushoff from IC50; read-out: ER-α Ki
# Ki per record follows

Previously resolved entries follow.
# Compound, Endpoint value
records = [
    ("Cc1c(-c2ccc(Cl)cc2)c(=O)oc2cc(O)ccc12 [compound 42]", "> 3 µM"),
    ("O=c1c(-c2ccc(Br)cc2)coc2cc(O)cc(O)c12 [compound 20]", "> 3 µM"),
    ("O=c1c(-c2ccccc2O)coc2cc(O)cc(O)c12 [compound 16]", "> 3 µM"),
    ("O=c1c(-c2ccc(O)c(Br)c2)coc2cc(O)cc(O)c12 [compound 6]", "0.439 µM"),
]

Then there is this compound:
State the recorded Ki for this entry: COc1cc(-c2coc3cc(O)cc(O)c3c2=O)ccc1O [compound 9]
> 3 µM

* * *

Target desc: ER-β (Gen Bank Accession #X99101) (Homo sapiens)
Construct: made in house; host or cells: in vitro transcription/translation, TNT T7 Quick-Coupled reticulocyte lysate (Promega Cat.#L1170)
Protocol notes: Estrogen receptor binding, competition with [125I]-estradiol, ER-β
Measurement kind: Ki (nM)
Report the value in nM with no unit label.

Recorded Ki for "COc1cc(O)c2c(=O)c(-c3ccc(O)cc3)coc2c1" with ER-β (Gen Bank Accession #X99101) (Homo sapiens), please?
50

* * *

# Ki per record follows
Target desc: ER-α (Gen Bank Accession #M12674) (Homo sapiens, UniProt P03372)
Construct: made in house; host or cells: in vitro transcription/translation, TNT T7 Quick-Coupled reticulocyte lysate (Promega Cat.#L1170)
Protocol notes: Estrogen receptor binding, competition with [125I]-estradiol, ER-α
Study conditions: competition with 150 pM [125I]-estradiol; receptor-programmed reticulocyte lysate; overnight at 4° C.; Cheng-Prushoff from IC50; read-out: ER-α Ki

# Molecule, Target desc, Measurement kind, Endpoint value
rows = [
    ("O=c1c(-c2ccccc2)c(-c2ccccc2)oc2cc(O)ccc12 [compound 35]", "ER-α (Gen Bank Accession #M12674) (Homo sapiens, UniProt P03372)", "Ki", "0.05 µM"),
    ("O=c1c(-c2cccs2)coc2cc(O)cc(O)c12 [compound 17]", "ER-α (Gen Bank Accession #M12674) (Homo sapiens, UniProt P03372)", "Ki", "> 3 µM"),
    ("COc1c(O)cc(O)c2c(=O)c(-c3ccc(O)cc3)coc12 [compound 32]", "ER-α (Gen Bank Accession #M12674) (Homo sapiens, UniProt P03372)", "Ki", "> 3 µM"),
    ("O=c1c(-c2ccc3ccccc3n2)coc2cc(O)cc(O)c12 [compound 19]", "ER-α (Gen Bank Accession #M12674) (Homo sapiens, UniProt P03372)", "Ki", "> 3 µM"),
]

State the recorded Ki for this entry: Nc1ccc(-c2coc3cc(O)cc(O)c3c2=O)cc1 [compound 13]
> 3 µM

* * *

Target desc: ER-β (Gen Bank Accession #X99101) (Homo sapiens, UniProt Q92731)
Construct: made in house; host or cells: in vitro transcription/translation, TNT T7 Quick-Coupled reticulocyte lysate (Promega Cat.#L1170)
Protocol notes: Estrogen receptor binding, competition with [125I]-estradiol, ER-β
Study conditions: competition with 150 pM [125I]-estradiol; receptor-programmed reticulocyte lysate; overnight at 4° C.; Cheng-Prushoff from IC50; read-out: ER-β Ki
Measurement kind: pKi
Just the number, please; pKi means minus log10 of the concentration in mol/L.

Recorded pKi for O=c1c(-c2ccsc2)coc2cc(O)cc(O)c12 [compound 18] with ER-β (Gen Bank Accession #X99101) (Homo sapiens, UniProt Q92731), please?
7.77

Recorded pKi for O=c1oc2cc(O)ccc2cc1-c1ccc(O)cc1 [compound 38] with ER-β (Gen Bank Accession #X99101) (Homo sapiens, UniProt Q92731), please?
8.31

Recorded pKi for O=c1c(-c2ccc3ccccc3n2)coc2cc(O)cc(O)c12 [compound 19] with ER-β (Gen Bank Accession #X99101) (Homo sapiens, UniProt Q92731), please?
6.91

Recorded pKi for O=c1c(-c2ccccc2)c(-c2ccccc2)oc2cc(O)cc(O)c12 [compound 34] with ER-β (Gen Bank Accession #X99101) (Homo sapiens, UniProt Q92731), please?
8.02

Recorded pKi for Cc1c(-c2ccc(Cl)cc2)c(=O)oc2cc(O)ccc12 [compound 42] with ER-β (Gen Bank Accession #X99101) (Homo sapiens, UniProt Q92731), please?
7.29

* * *

# Ki per record follows
Target desc: ER-α (Gen Bank Accession #M12674) (Homo sapiens, UniProt P03372)
Construct: made in house; host or cells: in vitro transcription/translation, TNT T7 Quick-Coupled reticulocyte lysate (Promega Cat.#L1170)
Protocol notes: Estrogen receptor binding, competition with [125I]-estradiol, ER-α
Study conditions: competition with 150 pM [125I]-estradiol; receptor-programmed reticulocyte lysate; overnight at 4° C.; Cheng-Prushoff from IC50; read-out: ER-α Ki
Report the value in nM with no unit label.

Previously resolved entries follow.
# Compound, Target desc, Unit of measurement, Ki
records = [
    ("Cc1cc(O)cc2occ(-c3ccc(O)cc3)c(=O)c12 [compound 23]", "ER-α (Gen Bank Accession #M12674) (Homo sapiens, UniProt P03372)", "nM", 200),
    ("O=c1c(-c2ccc(O)cc2Cl)coc2cc(O)cc(O)c12 [Compound No. 2]", "ER-α (Gen Bank Accession #M12674) (Homo sapiens, UniProt P03372)", "nM", 56),
]

State the recorded Ki for this entry: Cc1c(-c2ccc(O)cc2)c(=O)oc2cc(O)ccc12 [Compound No. 28]
322

* * *

Target desc: ER-β (Gen Bank Accession #X99101) (Homo sapiens, UniProt Q92731)
Construct: made in house; host or cells: in vitro transcription/translation, TNT T7 Quick-Coupled reticulocyte lysate (Promega Cat.#L1170)
Protocol notes: Estrogen receptor binding, competition with [125I]-estradiol, ER-β
Study conditions: competition with 150 pM [125I]-estradiol; receptor-programmed reticulocyte lysate; overnight at 4° C.; Cheng-Prushoff from IC50; read-out: ER-β Ki
Measurement kind: log10 of Ki (log10 of the value in nM)
Please note: log10 values; quantity Ki; unit nM.

# Compound, log10 of Ki
measured = [
    ("O=C1c2c(O)cc(O)cc2OCC1c1ccc(O)cc1 (stereo not drawn) [compound 26]", 0.57),
    ("O=c1c(-c2ccc(O)c(Cl)c2)coc2cc(O)cc(O)c12 [compound 5]", 0.08),
    ("Cc1cc(O)ccc1-c1coc2cc(O)cc(O)c2c1=O [compound 3]", 0.08),
    ("O=c1cc(-c2ccc(O)cc2)oc2ccc(O)cc12 [compound 36]", -0.48),
    ("CCc1c(-c2ccc(O)cc2)c(=O)oc2cc(O)ccc12 [compound 29]", 0.60),
]

Recorded log10 of Ki for O=c1c(-c2ccc(O)c(O)c2)coc2cc(O)cc(O)c12 [compound 1] with ER-β (Gen Bank Accession #X99101) (Homo sapiens, UniProt Q92731), please?
0.33
